// provenance: ChEMBL document CHEMBL5584218

Exercise: state measured pKi for each of the molecules provided.
- testedOn: Mu-type opioid receptor (Homo sapiens)
- Sequence (P35372 whole entry): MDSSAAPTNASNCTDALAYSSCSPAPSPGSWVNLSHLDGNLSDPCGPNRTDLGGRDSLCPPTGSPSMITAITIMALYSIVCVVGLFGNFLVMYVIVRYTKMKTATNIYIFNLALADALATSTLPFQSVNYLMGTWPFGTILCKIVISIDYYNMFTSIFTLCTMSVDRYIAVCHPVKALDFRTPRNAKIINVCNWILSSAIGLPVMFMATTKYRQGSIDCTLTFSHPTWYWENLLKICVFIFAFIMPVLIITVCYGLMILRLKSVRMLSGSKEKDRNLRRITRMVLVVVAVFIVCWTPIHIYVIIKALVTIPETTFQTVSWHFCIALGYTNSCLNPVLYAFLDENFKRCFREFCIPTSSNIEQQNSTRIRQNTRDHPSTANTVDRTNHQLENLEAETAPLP
- protocolNotes: Displacement of [3H]-DAMGO from human MOR extracted from HEK293 cell membrane assessed as inhibition constant
- Assay type: cell membranes
Expect pKi as a plain number equal to -log10 of the molar concentration.

# pKi of C[C@H](O)C[C@H]1NC2Cc3ccc(O)c4c3[C@]35CCN1[C@]23CCC(=O)C5O4 (stereo partly drawn) = 7.24

# pKi of O=C1CC[C@@]23C4Cc5ccc(O)c6c5[C@@]2(CCN3CN4CCc2ccccc2)C1O6 (stereo partly drawn) = 7.66

# pKi of C[C@@H](O)C[C@H]1NC2Cc3ccc(O)c4c3[C@]35CCN1[C@]23CCC(=O)C5O4 (stereo partly drawn) = 7.16

# pKi of CC(=O)/C=C1/NC2Cc3ccc(O)c4c3[C@]35CCN1[C@]23CCC(=O)C5O4 (stereo partly drawn) = 6.42

# pKi of CN1CN2CC[C@]34c5c6ccc(O)c5OC3C(=O)CC[C@]24C1C6 (stereo partly drawn) = 6.82

# pKi of O=C1CC[C@]23C4[C@@H](CN(CC5CC5)C[N@@]42)[C@]32c3cccc(O)c3OC12 (stereo partly drawn) = 7.70

# pKi of CC(=O)C(C(C)=O)=C1N(CC2CC2)C2Cc3ccc(O)c4c3[C@]35CCN1[C@]23CCC(=O)C5O4 (stereo partly drawn) = 6.16

# pKi of N[C@@]12CCC(=O)C3Oc4c(O)ccc5c4[C@@]31CCN(CC1CC1)C2C5 (stereo partly drawn) = 9.09
